System: PPARg:RXRa 270nM:90nM, anti-RXR (NR concentration 270 nM, RXRa partner concentration 90 nM)
Assay: PBM binding z-score (relative to random genomic background probes); higher = stronger binding; sequences stand for … in GC…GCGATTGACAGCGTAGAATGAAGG
Experimental readout: PBM binding z-score
# print the numeric value only

CCTTACGGGTCACGGGGTTATAGCACGACGAGCG 7.11

Q: Given the sequence TTACCAAGGTGAAAGGTCGGTGATGCACGCCTTG , what is its reported PBM binding z-score?
A: 6.88

Q: If you can, please state the reported PBM binding z-score value of CCGAGTAGGTTTCGAGGGGGCATTCAGTGCGAAT .
A: 1.67

Q: Which PBM binding z-score is reported for this sequence? ATATGTAGGTTAAGGGTCATGCAGGTTGGTTCGC
A: 10.2

Q: Which PBM binding z-score value is on record for CCTGCTCGGTCAATGGTCAGCTAAAGCAGCTCGC ?
A: 1.43

Q: Which PBM binding z-score is listed for CGAACTTGGTCACCAGGACAGTGAAGAGGTTGGA ?
A: 0.47

Q: Find the recorded PBM binding z-score belonging to ATATGTAGGTTTGGGTCATTCAGAAAGTAGGGAA and report it.
A: 2.64

Q: May I ask what PBM binding z-score has been recorded for CCTGCTAGTTCATGGTCAGCTAATCTACAGTATG ?
A: -0.236

Q: Name the reported PBM binding z-score value associated with the sequence CCTGCTAGGTCATGGTCAGGTAATCTACAGTATG
A: 2.82

Q: Report PBM binding z-score for CTATGTAGGTTATGGGGGTCATTCAGTTTGAAAG please.
A: 7.54

Q: Dear colleague, I am looking for the recorded PBM binding z-score of the following sequence: ATATGTAGGTAAGGGTCATTCAGAAAGTAGGGAA
A: 6.82

Q: Param item = CGTCAAAGTTCAAGGTAAAGTAACAGAAAGCAGC ; retrieve measured PBM binding z-score.
A: 5.07

Q: Quick one: PBM binding z-score of CCTTACGGGTCACGGTTATAGCACGGGTGGTACG ?
A: 5.89

###

Tested on: VDR homodimer (NR concentration 270 nM)
Assay: PBM binding z-score (relative to random genomic background probes); higher = stronger binding; sequences stand for … in GC…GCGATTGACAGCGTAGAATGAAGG
Experimental readout: PBM binding z-score

CGAACTAGGCCAAAGGACAGTGAAAGGCGACGTA -0.627

Q: Using the record for CCGAGTAGGTTCCGAGGGGGCATTCAGTGCGAAT , report its PBM binding z-score.
A: 3.91

Q: Name the recorded PBM binding z-score for CTATGTAGGTTAAGGGGGTCATTCAATTTGAAAG .
A: 5.01

Q: Would you mind telling me what PBM binding z-score value was observed for ATATGTTGGTTAGGGTCATTCAGAAAGTAGGGAA ?
A: 4.01

###

Tested on: PPARg DBDmut:RXRa IVT, anti-PPARg (DBD mutation: PPARg1 K132A/R137A, NR concentration 270 nM, RXRa partner concentration 90 nM)
Experiment: PBM binding z-score (relative to random genomic background probes); higher = stronger binding; sequences stand for … in GC…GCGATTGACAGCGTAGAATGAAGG
Experimental readout: PBM binding z-score
Please respond with just the number, no unit label.

TCTTGTTGATCAAAGGTTAAGAAAGCCGAAGCCT 1.32
CCTACTGGGCCATTAAGAGGTCATTGATCATATG 0.259
CCTACTGGGCCATACAGAGGTCATTGATCATATG 1.03
CGTCCAAGGTCAGAGAGGTCAGTGACTGCCGAGT -0.0571
TCTCGGAGGACACGAAACGTCAGAGCTCGACATC -0.35

Q: Bench note: what PBM binding z-score did CCTTACGGGTCAAGGTTGTAGCACGGGTGGTACG show?
A: 0.572

Q: Query (sequence): TAGCCTAGGTCAGATCGGGGCAGTATACGCTATA ; field requested: PBM binding z-score
A: 0.079

Q: If you can, please state the reported PBM binding z-score value of CCTAGTTGGTCAGGAGGCCACACACCGGATATGA .
A: 0.117

Q: Quick one: PBM binding z-score for TAGCCTAGGTCATTCAGGCGCCAGTATAGAAAGC ?
A: 0.787

Q: Which PBM binding z-score is reported for this sequence? ACTAGTAGGTCAGCTGAGGTCACACACAATTCGG
A: 2.63

Q: Returns the measured PBM binding z-score for the input sequence. Input: GGAACGGGGGCATTCGAGTTGATAGCATGGCGAT
A: 8.85

Q: # query: PBM binding z-score of entry CATACAGGGTCCGCTAGGCCAGAGTAGGGACGGC
A: 0.386

Q: Give the measured PBM binding z-score of CCTAGTTGGTCAGGAGGTCCCACACCGGATATGA .
A: -0.124

Q: Quick one: PBM binding z-score for GGAACGAGCGCAAAGTTGATAGCATCTGTCGACG ?
A: -0.634

Q: Name the recorded PBM binding z-score for TAGCCTAGGTCAAGCGGGCCAGTATAGTGTCGGC .
A: -0.422

Q: Tell me the measured PBM binding z-score of CGAACTAGGTCAGAACAGGACAGTTAAGGATGAT , please.
A: 3.55

###

Tested on: RARb homodimer (NR concentration 270 nM)
Test: PBM binding z-score (relative to random genomic background probes); higher = stronger binding; sequences stand for … in GC…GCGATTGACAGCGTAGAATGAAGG
Experimental readout: PBM binding z-score
Enter the number alone.

AGACAAAGTTCAGGACGAGGTAACGTAAAGCACG 3.04
CGAACTAGGTCAAAGGACAGCGAAAGGCGACGTA 3.05

// switching to the query sequence
Q: Give the reported PBM binding z-score for AGTCAAAGTTCAGGACGAGGTAAAGTAAAGCACG (system: RARb homodimer (NR concentration 270 nM)).
A: 3.05

###

Test system: RARa:RXR (NR concentration 270 nM, RXRa partner concentration 90 nM)
Experiment: PBM binding z-score (relative to random genomic background probes); higher = stronger binding; sequences stand for … in GC…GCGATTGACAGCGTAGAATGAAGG
Parameter class (string): assigned from measured PBM binding z-score. Ranges: low (below 0.5), moderate (0.5 to below 4), high (4 or more)

ACTCGGAGGACAAATGTCAGAGCTACGCCAGTGA low
GATTACGGGTCAAAGGTTATAGCATGAATAGAAT high
CGAACTAGGTCACCAGGACAGTGACGAGGTTGGA moderate
CCTACTGGGCCAAGGTCTTTGATCAGTCAAAGCA low
CCTACTGGGCCATGAAAGGTCATTGATTCAGTGA high

Q: Determine which band this sequence sits in: CGAACTAGGTCACCAGGATAGTGAAGAGGTTGGA
A: moderate

Q: Input CGAACTAGGTCACCAGGACAGTGTAGAGGTTGGA ; output its category
A: moderate

Q: In plain terms, what class is TCGAGTAGGTTACTGGGGCATTCAGGGATGAAGA ?
A: moderate

Q: Which PBM binding z-score category applies to AATTCAGGGTCACTAGGCCAGAGTAGGTACGAAT here?
A: high

Q: Returns: class label. Input: CGAACTAGTTCACCAGGACAGTGAAGAGGTTGGA
A: low

###

Tested on: VDR:RXRa (NR concentration 270 nM, RXRa partner concentration 90 nM)
Experiment: PBM binding z-score (relative to random genomic background probes); higher = stronger binding; sequences stand for … in GC…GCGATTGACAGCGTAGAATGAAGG
Experimental readout: PBM binding z-score

Q: What does the data say about its PBM binding z-score? Entry: ATCTCTAGGTAAAGGTCAGTGAAAGATCGATAGA
A: 2.89

Q: Consider the sequence shown here: CCGAGTAGGTTACGAGGGGGCATTCATTGCGAAT What is its recorded PBM binding z-score?
A: 4.7

Q: Need PBM binding z-score of CGAACTAGGTAAAAGGACAGTGAAAGGCGACGTA , thanks.
A: -0.189

Q: Suppose we examine the sequence GGTACGAGGGCAAAGTTGATAGCATCTGTCGACG ; what PBM binding z-score value has been reported?
A: 1.14

Q: // query PBM binding z-score value for entry CCTACTGGGCCGAGGTCATTGATCAGTCAAAGCA
A: 4.12

Q: Which value of PBM binding z-score has been reported for CCTACTGGGCCACGTAAGGTCATTGATTCAGTGA in the records?
A: 3.69

Q: If you can, please state the reported PBM binding z-score value of CGAACTAGGTCACCAGGACACTGAAGAGGTTGGA .
A: 2.56

Q: Please report the recorded PBM binding z-score for CCCACTGGGGCAAAGGTTACCATACTCAGTACGA .
A: 1.61

Q: Bench note: what PBM binding z-score did TCGAGTAGGCTACGGGGGCATTCAGGGATGAAGA show?
A: 2.2

Q: So what's the measured PBM binding z-score for this one? AGAATGGGGTTAAGATCAGGGAAACAGAATACAT
A: 2.91

Q: // lookup PBM binding z-score for CCGAGTAGGTTACGTGGGGGCATTCAGTGCGAAT
A: 5.48

Q: Param item = CAAACTAGGTCACCAGGACAGTGAAGAGGTTGGA ; retrieve measured PBM binding z-score.
A: 2.3
